- Assayed System: RARγ (Homo sapiens)
- Sequence (P13631 whole entry): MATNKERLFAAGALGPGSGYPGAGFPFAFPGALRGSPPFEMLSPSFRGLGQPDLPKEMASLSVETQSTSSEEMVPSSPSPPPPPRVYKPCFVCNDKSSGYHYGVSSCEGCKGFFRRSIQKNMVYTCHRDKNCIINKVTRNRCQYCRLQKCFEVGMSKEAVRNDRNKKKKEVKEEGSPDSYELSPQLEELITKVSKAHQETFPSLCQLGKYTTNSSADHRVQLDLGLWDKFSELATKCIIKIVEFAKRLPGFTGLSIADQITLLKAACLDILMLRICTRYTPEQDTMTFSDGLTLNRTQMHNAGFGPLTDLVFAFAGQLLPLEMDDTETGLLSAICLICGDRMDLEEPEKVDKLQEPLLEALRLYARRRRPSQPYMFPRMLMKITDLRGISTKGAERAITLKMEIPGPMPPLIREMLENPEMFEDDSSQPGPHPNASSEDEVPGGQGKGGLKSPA
- Protocol Notes: Co-transfection assay (CV-1 cells), RARγ agonist activity
- Condition Description: co-transfection assay, CV-1 cells, read-out: RARγ Pot (potency, EC50)
Endpoint Label: pEC50
Remember the convention: pEC50 equals -log10 of concentration in molar.

Give pEC50 for CCCC(O)c1cc(C(C)(C)C)cc(C(C)(C)C)c1 (stereo not shown) [Compound 19, 1-(3,5-Di-t-butylphenyl)butan-1-ol]
7.80

###

- Assayed System: RXRγ (Mus musculus, UniProt P28705)
- Sequence (P28705 1-463): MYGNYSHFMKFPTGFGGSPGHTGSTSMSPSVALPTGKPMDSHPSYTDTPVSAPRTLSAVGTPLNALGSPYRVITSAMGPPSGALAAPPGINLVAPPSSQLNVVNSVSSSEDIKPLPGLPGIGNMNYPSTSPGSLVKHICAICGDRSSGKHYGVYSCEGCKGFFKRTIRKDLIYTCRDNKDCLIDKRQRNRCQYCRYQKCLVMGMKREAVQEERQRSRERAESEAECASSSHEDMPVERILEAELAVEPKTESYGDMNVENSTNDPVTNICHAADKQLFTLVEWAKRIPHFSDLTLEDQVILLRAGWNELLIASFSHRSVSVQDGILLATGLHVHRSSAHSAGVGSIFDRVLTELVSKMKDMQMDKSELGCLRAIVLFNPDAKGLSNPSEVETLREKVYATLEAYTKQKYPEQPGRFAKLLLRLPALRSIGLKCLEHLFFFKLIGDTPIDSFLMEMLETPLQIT
- Protocol Notes: Co-transfection assay (CV-1 cells), RXRγ agonist activity
- Condition Description: read-out: RXRγ Pot (potency, EC50)
Endpoint Label: EC50 (nM)
Write the answer as a number in nM, unit excluded.

Give EC50 for CCCC(O)c1cc(C(C)(C)C)cc(C(C)(C)C)c1 (stereo not shown)
56

###

- Assayed System: RXRα (Homo sapiens, UniProt P19793)
- Sequence (P19793 whole entry): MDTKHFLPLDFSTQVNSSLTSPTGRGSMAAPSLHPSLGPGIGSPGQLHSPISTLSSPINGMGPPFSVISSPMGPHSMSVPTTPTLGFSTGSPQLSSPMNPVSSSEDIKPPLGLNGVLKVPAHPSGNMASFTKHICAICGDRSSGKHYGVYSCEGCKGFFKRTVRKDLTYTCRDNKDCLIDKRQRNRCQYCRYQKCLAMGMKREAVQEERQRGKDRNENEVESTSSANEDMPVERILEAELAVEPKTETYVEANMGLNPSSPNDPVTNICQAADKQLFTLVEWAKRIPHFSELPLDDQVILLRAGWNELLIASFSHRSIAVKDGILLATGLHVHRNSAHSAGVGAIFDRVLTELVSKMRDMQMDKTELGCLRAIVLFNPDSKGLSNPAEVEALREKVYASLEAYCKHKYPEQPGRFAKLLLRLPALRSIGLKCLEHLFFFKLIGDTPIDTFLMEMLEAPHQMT
- Protocol Notes: Co-transfection assay (CV-1 cells), RXRα agonist activity
- Condition Description: read-out: RXRα Pot (potency, EC50)
Endpoint Label: pEC50
Remember the convention: pEC50 equals -log10 of concentration in molar.

Give pEC50 for CCCC(O)c1cc(C(C)(C)C)cc(C(C)(C)C)c1 (stereo not shown)
6.90
